Target: T1, human ribonuclease inhibitor (human, UniProt P13489 2-461)
T1 construct: also called hRI; hR1
T1 sequence: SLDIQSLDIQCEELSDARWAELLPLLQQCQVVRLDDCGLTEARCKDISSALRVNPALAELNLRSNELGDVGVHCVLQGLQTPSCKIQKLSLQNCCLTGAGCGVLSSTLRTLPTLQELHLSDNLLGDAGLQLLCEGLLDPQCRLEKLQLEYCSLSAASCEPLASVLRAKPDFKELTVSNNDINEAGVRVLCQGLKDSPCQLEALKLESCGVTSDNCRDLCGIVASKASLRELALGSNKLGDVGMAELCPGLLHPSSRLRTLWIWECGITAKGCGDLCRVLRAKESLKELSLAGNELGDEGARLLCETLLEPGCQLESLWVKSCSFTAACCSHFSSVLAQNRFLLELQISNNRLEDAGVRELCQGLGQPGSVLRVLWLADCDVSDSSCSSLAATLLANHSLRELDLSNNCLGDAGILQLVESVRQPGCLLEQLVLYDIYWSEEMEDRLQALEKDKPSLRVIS
Assay: ΔΔG of R39D/N67D/N88A/G89D/R91D RNase 1 minus ΔΔG of this variant
Excerpt: Values for Kd were obtained by nonlinear least-squares analysis of the binding isotherm using the program […] 5.5 (Red Rock Software, Salt Lake City, Utah).
PROPERTY LABEL: ΔΔΔG (kcal/mol)

{"BINDER": "R39D/N67D/N88A/G89D RNase 1 (enzyme) KESRAKKFQRQHMDSDSSPSSSSTYCNQMMRRRNMTQGDCKPVNTFVHEPLVDVQNVCFQEKVTCKDGQGNCYKSNSSMHITDCRLTADSRYPNCAYRTSPKERHIIVACEGSPYVPVHFDASVEDST", "UNIT ANNOTATION": "kcal/mol", "NUMERIC READOUT": 2.8}
{"BINDER": "R39L/N67L/N88A/G89L/R91L RNase 1 (enzyme) KESRAKKFQRQHMDSDSSPSSSSTYCNQMMRRRNMTQGLCKPVNTFVHEPLVDVQNVCFQEKVTCKLGQGNCYKSNSSMHITDCRLTALSLYPNCAYRTSPKERHIIVACEGSPYVPVHFDASVEDST", "UNIT ANNOTATION": "kcal/mol", "NUMERIC READOUT": 2.4}
{"BINDER": "N67D/N88A/G89D/R91D RNase 1 (enzyme) KESRAKKFQRQHMDSDSSPSSSSTYCNQMMRRRNMTQGRCKPVNTFVHEPLVDVQNVCFQEKVTCKDGQGNCYKSNSSMHITDCRLTADSDYPNCAYRTSPKERHIIVACEGSPYVPVHFDASVEDST", "UNIT ANNOTATION": "kcal/mol", "NUMERIC READOUT": 2.2}
{"BINDER": "R39D/N67D/G89D/R91D RNase 1 (enzyme) KESRAKKFQRQHMDSDSSPSSSSTYCNQMMRRRNMTQGDCKPVNTFVHEPLVDVQNVCFQEKVTCKDGQGNCYKSNSSMHITDCRLTNDSDYPNCAYRTSPKERHIIVACEGSPYVPVHFDASVEDST", "UNIT ANNOTATION": "kcal/mol", "NUMERIC READOUT": 0.4}

src = patent US20090311784A1
